tested on: MCF7; assay: Cytotoxicity against human MCF7 cells assessed as cell viability after 72 hrs by celltiter-blue assay; type: functional, cell-based; settings: MCF7, 72 h
pIC50: −log10 of the molar value.

| given.smiles | tested.target | pIC50 |
| --- | --- | --- |
| C/C=C(\C)[C@@H](O)[C@@H](C)[C@@H]1C/C=C(\C)C(=O)O[C@H](CC(C)C)C(=O)N[C@H](C)C(=O)N(C)[C@H](Cc2ccccc2)C(=O)N(C)CC(=O)N[C@@H]([C@@H](C)CC)C(=O)N[C@H](C)C(=O)O1 | MCF7 | 5.43 |
| C/C=C(\C)[C@H]1OC(=O)[C@@H](C)NC(=O)[C@H]([C@@H](C)CC)NC(=O)CN(C)C(=O)[C@@H](Cc2ccccc2)N(C)C(=O)[C@@H](C)NC(=O)[C@@H](CC(C)C)OC(=O)/C(C)=C/C[C@H](O)[C@@H]1C | MCF7 | 5.78 |

---

system: K562; assay: Cytotoxicity against human K562 cells assessed as cell viability after 72 hrs by celltiter-blue assay; type: functional, cell-based; settings: K562, 72 h
pIC50: −log10 of the molar value.
# pIC50 per entry

| given.smiles | result.qualifier | pIC50 |
| --- | --- | --- |
| C/C=C(\C)[C@@H](O)[C@@H](C)[C@@H]1C/C=C(\C)C(=O)O[C@H](CC(C)C)C(=O)N[C@H](C)C(=O)N(C)[C@H](Cc2ccccc2)C(=O)N(C)CC(=O)N[C@@H]([C@@H](C)CC)C(=O)N[C@H](C)C(=O)O1 | = | 6.03 |
| C/C=C(\C)[C@H]1OC(=O)[C@@H](C)NC(=O)[C@H]([C@@H](C)CC)NC(=O)CN(C)C(=O)[C@@H](Cc2ccccc2)N(C)C(=O)[C@H](C)NC(=O)[C@@H](CC(C)C)OC(=O)/C(C)=C/C[C@H](OC(=O)c2ccccc2)[C@@H]1C | = | 8.74 |
| CC[C@H](C)[C@H](NC(=O)CN(C)C(=O)[C@@H](Cc1ccccc1)N(C)C(=O)[C@H](C)NC(=O)[C@H](O)CC(C)C)C(=O)O | < | 5.00 |

---

test system: MCF7; experiment: Cytotoxicity against human MCF7 cells assessed as cell viability after 72 hrs by celltiter-blue assay; assay type: functional, cell-based; conditions: MCF7, 72 h
pIC50: −log10 of the molar value.
# pIC50 per entry

| compound | pIC50 |
| --- | --- |
| C/C=C(\C)[C@H]1OC(=O)[C@@H](C)NC(=O)[C@H]([C@@H](C)CC)NC(=O)CN(C)C(=O)[C@@H](Cc2ccccc2)N(C)C(=O)[C@@H](C)NC(=O)[C@@H](CC(C)C)OC(=O)/C(C)=C/C[C@H](OCSC)[C@@H]1C | < 5.00 |
| CC[C@H](C)[C@H](NC(=O)CN(C)C(=O)[C@@H](Cc1ccccc1)N(C)C(=O)[C@H](C)NC(=O)[C@H](O)CC(C)C)C(=O)O | < 5.00 |
| C/C=C(\C)[C@@H](OC(=O)[C@@H](C)N)[C@@H](C)C(C/C=C(\C)C(=O)O[C@H](CC(C)C)C(=O)N[C@@H](C)C(=O)N(C)[C@H](Cc1ccccc1)C(=O)N(C)CC(=O)N[C@H](C(=O)O)[C@@H](C)CC)OCSC (single isomer, unassigned) | < 5.00 |
